- tgt: human JAK1 (a.a. 837-1142)
- method-description: In vitro JAK kinase assay (HTRF, phosphorylation of a biotinylated peptide), JAK1
- Assay type: biochemical
- reported-conditions: ratio of JAK2 IC50 to JAK1 IC50, measured at 1 mM ATP
quantity-kind: IC50 Ratio JAK2/JAK1
The response must contain the number and no unit.

structure_smiles_string=N#CCC1(n2cc(-c3ncnc4[nH]ccc34)cn2)CN(C2CCN(C(=O)OCC3CCC3)CC2)C1 measured_result=9.7
structure_smiles_string=N#CCC1(n2ccc(-c3ncnc4[nH]ccc34)c2)CN(C2CCN(C(=O)c3c(F)cccc3F)CC2)C1 measured_result=4.1
structure_smiles_string=N#CCC1(n2cc(-c3ncnc4[nH]ccc34)cn2)CN(C2CCN(C(=O)c3ccc(-c4cccc(C#N)c4)c(F)c3)CC2)C1 measured_result=8.1
structure_smiles_string=CC(C)NC(=O)N1CCC(N2CC(CC#N)(n3cc(-c4ncnc5[nH]ccc45)cn3)C2)CC1 measured_result=33.8

Query: What value of IC50 Ratio JAK2/JAK1 has been recorded for this entry: CS(=O)(=O)N1CCC(N2CC(CC#N)(n3cc(-c4ccnc5[nH]ccc45)cn3)C2)CC1
Result: 3.8

Query: Continue with N#CCC1(n2cc(-c3ncnc4[nH]ccc34)cn2)CN(C2CCN(C(=O)Nc3ccc(C(F)(F)F)cc3)CC2)C1
Result: 2.0

Query: Continue with N#CCC1(n2ccc(-c3ncnc4[nH]ccc34)c2)CN(C2CCN(C(=O)c3ccc(C#N)cc3F)CC2)C1
Result: 9.5

----------
pIC50: −log10 of the molar value.
Observed pIC50 for human JAK1 (a.a. 837-1142) (Homo sapiens, UniProt P23458), reported per entry below.

Worked cases, answers included:
compound=N#CCC1(n2cc(-c3ncnc4[nH]ccc34)cn2)CN(C2CCN(C(=O)c3ccc(F)c(F)c3F)CC2)C1 tgt="human JAK1 (a.a. 837-1142) (Homo sapiens, UniProt P23458)" measured_result="≥ 8.30"
compound=N#CCC1(n2cc(-c3ncnc4[nH]ccc34)cn2)CN(C2CCN(C(=O)C3(c4ccccc4)CC3)CC2)C1 tgt="human JAK1 (a.a. 837-1142) (Homo sapiens, UniProt P23458)" measured_result="7.70 to 8.30"
compound=CN(C)Cc1cc(C(=O)N2CCC(N3CC(CC#N)(n4cc(-c5ncnc6[nH]ccc56)cn4)C3)CC2)nc(C(F)(F)F)n1 tgt="human JAK1 (a.a. 837-1142) (Homo sapiens, UniProt P23458)" measured_result="≥ 8.30"
compound=N#CCC1(n2cc(-c3c(C#N)cnc4[nH]ccc34)cn2)CN(C2CCN(C(=O)c3cc(C(F)(F)F)ncc3Cl)CC2)C1 tgt="human JAK1 (a.a. 837-1142) (Homo sapiens, UniProt P23458)" measured_result="7.70 to 8.30"
compound=N#CCC1(n2cc(-c3ncnc4[nH]ccc34)cn2)CN(C2CCN(C(=O)C3CCCC3)CC2)C1 tgt="human JAK1 (a.a. 837-1142) (Homo sapiens, UniProt P23458)" measured_result="7.70 to 8.30"

Switching to the query record.
Query: What is its pIC50 for human JAK1 (a.a. 837-1142) (Homo sapiens, UniProt P23458)? Entry: COc1c(Br)cc(C(=O)N2CCC(N3CC(CC#N)(n4cc(-c5ncnc6[nH]ccc56)cn4)C3)CC2)cc1Br
Result: ≥ 8.30

----------
- tgt: human JAK1 (a.a. 837-1142)
- method-description: In vitro JAK kinase assay (HTRF, phosphorylation of a biotinylated peptide), JAK1
- Assay type: biochemical
- reported-conditions: ratio of JAK2 IC50 to JAK1 IC50, measured at 1 mM ATP
In this section, each of the compounds is paired with its reported IC50 Ratio JAK2/JAK1.

Worked cases, answers included:
compound="Cc1nc(C(F)(F)F)ccc1NC(=O)N1CCC(N2CC(CC#N)(n3ccc(-c4ncnc5[nH]ccc45)c3)C2)CC1 [Example 285]" tgt="human JAK1 (a.a. 837-1142)" quantity_kind="IC50 Ratio JAK2/JAK1" measured_result=5.7
compound="N#CCC1(n2cc(-c3c(F)cnc4[nH]ccc34)cn2)CN(C2CCN(C(=O)c3ccnc(C(F)(F)F)n3)CC2)C1 [Example 353]" tgt="human JAK1 (a.a. 837-1142)" quantity_kind="IC50 Ratio JAK2/JAK1" measured_result=5.0
compound="N#CCC1(n2cc(-c3ccnc4[nH]ccc34)cn2)CN(C2CCN(C(=O)Nc3ccc(F)cc3Cl)CC2)C1 [Example 305]" tgt="human JAK1 (a.a. 837-1142)" quantity_kind="IC50 Ratio JAK2/JAK1" measured_result=16.0
compound="N#CCC1(n2cc(-c3ncnc4[nH]ccc34)cn2)CN(C2CCN(C(=O)c3cc(C(F)(F)F)ncc3Cl)CC2)C1 [Example 342]" tgt="human JAK1 (a.a. 837-1142)" quantity_kind="IC50 Ratio JAK2/JAK1" measured_result=5.7
compound="N#CCC1(n2cc(-c3ncnc4[nH]ccc34)cn2)CN(C2CCN(C(=O)c3cc(CO)nc(C(F)(F)F)n3)CC2)C1 [Example 381]" tgt="human JAK1 (a.a. 837-1142)" quantity_kind="IC50 Ratio JAK2/JAK1" measured_result=20

Query: What value of IC50 Ratio JAK2/JAK1 has been recorded for this entry: N#CCC1(n2cc(-c3ncnc4[nH]ccc34)cn2)CN(C2CCN(Cc3c(C(F)(F)F)ccc(Cl)c3F)CC2)C1 [Example 236]
Result: 5.5

Query: Continue with COc1cscc1C(=O)N1CCC(N2CC(CC#N)(n3cc(-c4ncnc5[nH]ccc45)cn3)C2)CC1 [Example 72]
Result: 6.6

----------
- tgt: human JAK1 (a.a. 837-1142)
- method-description: In vitro JAK kinase assay (HTRF, phosphorylation of a biotinylated peptide), JAK1
- Type: biochemical
- reported-conditions: ratio of JAK2 IC50 to JAK1 IC50, measured at 1 mM ATP
quantity-kind: IC50 Ratio JAK2/JAK1
The response must contain the number and no unit.

Worked cases, answers included:
structure_smiles_string=N#CCC1(n2ccc(-c3ncnc4[nH]ccc34)c2)CN(C2CCN(C(=O)Nc3ncccc3F)CC2)C1 measured_result=9.1
structure_smiles_string=N#CCC1(n2cc(-c3ncnc4[nH]ccc34)cn2)CN(C2CCN(C(=O)c3cccc(Br)c3)CC2)C1 measured_result=4.2
structure_smiles_string=Cc1ncccc1NC(=O)N1CCC(N2CC(CC#N)(n3cc(-c4ncnc5[nH]ccc45)cn3)C2)CC1 measured_result=4.4
structure_smiles_string=N#CCC1(n2cc(-c3ncnc4[nH]ccc34)cn2)CN(C2CCN(C(=O)Nc3nc4ccccc4s3)CC2)C1 measured_result=0.5
structure_smiles_string=N#CCC1(n2ccc(-c3ncnc4[nH]ccc34)c2)CN(C2CCN(C(=O)c3ccc(F)c(F)c3F)CC2)C1 measured_result=7.5

Query: What value of IC50 Ratio JAK2/JAK1 has been recorded for this entry: Cc1ccc(Cl)cc1NC(=O)N1CCC(N2CC(CC#N)(n3cc(-c4ncnc5[nH]ccc45)cn3)C2)CC1
Result: 2.6

Query: Continue with N#CCC1(n2cc(-c3ncnc4[nH]ccc34)cn2)CN(C2CCN(C(=O)Nc3nc(-c4ccc(Cl)cc4)cs3)CC2)C1
Result: 3.2

----------
pIC50: −log10 of the molar value.
Observed pIC50 for Jak2 (a.a. 828-1132) (Homo sapiens (Human), UniProt O60674), reported per entry below.

Worked cases, answers included:
compound=N#CCC1(n2ccc(-c3ncnc4[nH]ccc34)c2)CN(C2CCN(C(=O)c3cccc(C(F)(F)F)c3)CC2)C1 tgt="Jak2 (a.a. 828-1132) (Homo sapiens (Human), UniProt O60674)" measured_result="7.30 to 8.00"
compound=N#CCC1(n2ccc(-c3ncnc4[nH]ccc34)c2)CN(C2CCN(C(=O)Nc3ncccc3C(F)(F)F)CC2)C1 tgt="Jak2 (a.a. 828-1132) (Homo sapiens (Human), UniProt O60674)" measured_result="< 7.00"
compound="N#CCC1(n2cc(-c3ncnc4[nH]ccc34)cn2)CN(C2CC3CCC(C2)N3C(=O)c2ccnc(C(F)(F)F)c2)C1 (stereo not shown)" tgt="Jak2 (a.a. 828-1132) (Homo sapiens (Human), UniProt O60674)" measured_result="7.30 to 8.00"

Switching to the query record.
Query: What is its pIC50 for Jak2 (a.a. 828-1132) (Homo sapiens (Human), UniProt O60674)? Entry: N#CCC1(n2cc(-c3ccnc4[nH]ccc34)cn2)CN(C2CCN(C(=O)Nc3ccc(C#N)cc3F)CC2)C1
Result: 7.00 to 7.30

----------
In this section, each of the compounds is paired with its reported IC50 Ratio JAK2/JAK1.
- tgt: human JAK1 (a.a. 837-1142)
- method-description: In vitro JAK kinase assay (HTRF, phosphorylation of a biotinylated peptide), JAK1
- Format: biochemical
- reported-conditions: ratio of JAK2 IC50 to JAK1 IC50, measured at 1 mM ATP
Where a name gives a salt, the structure may show the parent alone.
The response must contain the number and no unit.

Worked cases, answers included:
compound=N#CCC1(n2cc(-c3c(F)cnc4[nH]ccc34)cn2)CN(C2CCN(C(=O)C3CCC(F)(F)CC3)CC2)C1 quantity_kind="IC50 Ratio JAK2/JAK1" measured_result=4.1
compound=N#CCC1(n2cc(-c3ccnc4[nH]ccc34)cn2)CN(C2CCN(C(=O)c3nc(C(F)(F)F)cs3)CC2)C1 quantity_kind="IC50 Ratio JAK2/JAK1" measured_result=15.0
compound=N#CCC1(n2cc(-c3ncnc4[nH]ccc34)cn2)CN(C2CCN(C(=O)Nc3nccs3)CC2)C1 quantity_kind="IC50 Ratio JAK2/JAK1" measured_result=2.1
compound=N#CCC1(n2cc(-c3ncnc4[nH]ccc34)cn2)CN(C2CCN(C(=O)c3ccc(-c4ccc5nccn5c4)c(F)c3)CC2)C1 quantity_kind="IC50 Ratio JAK2/JAK1" measured_result=7.1
compound=N#CCC1(n2cc(-c3ncnc4[nH]ccc34)cn2)CN(C2CCN(S(=O)(=O)c3cccc(C#N)c3)CC2)C1 quantity_kind="IC50 Ratio JAK2/JAK1" measured_result=5.2

Query: What value of IC50 Ratio JAK2/JAK1 has been recorded for this entry: CNCc1cc(C(=O)N2CCC(N3CC(CC#N)(n4cc(-c5ncnc6[nH]ccc56)cn4)C3)CC2)nc(C(F)(F)F)n1 [Example 371, trifluoroacetate salt]
Result: 65.3

Query: Continue with N#CCC1(n2cc(-c3ncnc4[nH]ccc34)cn2)CN(C2CCN(C(=O)c3cc(F)c(F)cc3F)CC2)C1
Result: 6.5

Every entry's value here was drawn from patent US9999619B2.
